- TESTED TARGET: thrombin (Homo sapiens, UniProt P00734)
- Construct: allowing factor Xa to convert prothrombin to thrombin
- TEST NAME: Chemiluminescent substrate cleavage by purified thrombin (luciferase/ATP luminescence)
- Assay type: biochemical
- MEASUREMENT CONTEXT: 30 nM thrombin final, instead of plasma; assay as example 1
MEASURED PARAMETER: RLU thrombin (RLU)

1: N=C(N)NCCC[C@H](NC(=O)CNC(=O)CNC(=O)OCc1ccccc1)C(=O)Nc1ccc2nc(C3=N[C@@H](C(=O)O)CS3)sc2c1.O=C(O)C(F)(F)F [Cbz-Gly-Gly-Arg-aminoluciferine•TFA]
2: COCCOCCOCC(=O)NC(Cc1ccccc1)C(=O)NC(CCCNC(=N)N)C(=O)Nc1ccc2nc(C3=NC(C(=O)O)CS3)sc2c1.O=C(O)C(F)(F)F (centres unmarked)
Lower value for measured RLU thrombin? Options: 1 , 2 // return label of chosen record
2
